Each recorded value in this set is attributed to patent US20170209445A1.

System: Jurkat cells
Experiment: Cell cytotoxicity assay (Jurkat cell viability)
Type: cell-based, human
Details: 20 μg/mL, 24 hours
Description: 1×10^5 Jurkat cells (immortalised human T lymphocytes) are added to the appropriate number of wells of a 96 well plate in 100 μL of media (RPMI supplemented with 10% foetal bovine serum). […] After 15 minutes, cells are analysed by flow cytometry (BD accuri) using the FL3 window. The % viability is calculated as the % of cells that are PI negative in the test wells normalised to the DMSO control.
MEASURE_NAME: % Viability at 20 μg/mL (%)
Field: numeric (%). Do not append units.

Examples from the recorded data:
>>> reading("COc1c(NC(=O)c2ccc(C)c(-c3ccc4nc(Nc5ccc(N=S(C)(C)=O)cc5)ncc4c3)c2)cc(C(C)(C)C)cc1NS(C)(=O)=O")
49.7
>>> reading("C#Cc1cc(Nc2ncc3cc(-c4cc(C(=O)Nc5cc(C(C)(C)C)cc(NS(C)(=O)=O)c5OC)ccc4C)ccc3n2)cc(C(=O)NCCOCCOCCOC)c1")
65.4
>>> reading("COc1cc(Nc2ncc3cc(-c4cc(C(=O)Nc5cc(C(C)(C)C)cc(C(N)=O)c5OC)ccc4C)ccc3n2)cc(C(=O)NCCN2CCOCC2)c1")
77.5

Attention now turns to another entry.
Exercise: Recorded % Viability at 20 μg/mL for COCC(=O)Nc1cc(Oc2ccc(NC(=O)Nc3cc(C(C)(C)C)nn3-c3ccc(C)cc3)c3ccccc23)ccn1 [Reference Compound A, reference compound] , please?
Key: 17.3
